Entry source: the supplement of paper PMC10724198

Test system: Saccharomyces cerevisiae;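 note: PSI is a weighted mean of sequencing reads over stability bins, variants kept only with over 10 reads, mCherry proximal and sfGFP distal, peptide attached via GGGS linker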
Assay: protein stability index of tFT-peptide fusion (C-terminal peptide) (PSI (0-1 scale)); higher = more stable (slower turnover)
Settings: genetic background: cdc53-1; temperature: 37 C
readout-type: protein stability index
Lab note: write the figure by itself, no unit.

Worked cases, answers included:
Prompt line: Indicate the recorded protein stability index value for this sequence: CLVFGFLFFIVI
Response line: 0.411

Prompt line: Indicate the recorded protein stability index value for this sequence: CSLFYVFYRRLL
Response line: 0.665

Prompt line: Indicate the recorded protein stability index value for this sequence: MLCVFVFIWYFV
Response line: 0.279

Prompt line: Indicate the recorded protein stability index value for this sequence: VVFVGRSIVVLT
Response line: 0.525

Prompt line: Indicate the recorded protein stability index value for this sequence: EKKKKKRKNKIK
Response line: 0.727

Further cases:
Prompt line: Indicate the recorded protein stability index value for this sequence: RLCLLLCCRLWL
Response line: 0.58

Prompt line: Indicate the recorded protein stability index value for this sequence: WRVRFRLLAGFC
Response line: 0.413

Prompt line: Indicate the recorded protein stability index value for this sequence: CLLWVVWSLLWV
Response line: 0.432
